Tested on: U2OS
Assay summary: Multiplex assay against U2OS
Type: toxicity, cell-based
Condition set: human, 24 h, 10 µM, compound concentration 10 uM, replicate 1
Here, each record is paired with measured Population Healthy Nuclei (%) data.
Quantity kind: Population Healthy Nuclei (%)

{"Molecule": "CC(/C=C1\\SC(=S)N(CCCC(=O)Nc2ccc(C(=O)O)c(O)c2)C1=O)=C\\c1ccccc1", "Value reported": "81%"}
{"Molecule": "CCOC(=O)CCNc1cc(N2CCc3ccccc3CC2)nc(-c2ccccn2)n1", "Value reported": "83%"}
{"Molecule": "Cl.NC[C@@H]1O[C@H](C23CC4CC(CC(C4)C2)C3)Cc2c1ccc(O)c2O", "Value reported": "33%"}
{"Molecule": "CCCc1cc(C)[nH]c(=O)c1CNC(=O)c1cc(-c2ccc(N3CCN(C(C)C)CC3)nc2)cc2c1cnn2C(C)C", "Value reported": "36%"}
{"Molecule": "CN(c1cc(C(F)(F)F)nc(OCCC(=O)O)n1)c1cccc2c1CCC2", "Value reported": "84%"}
{"Molecule": "CCCCCNC(=N)N/N=C/c1c[nH]c2ccc(OC)cc12.O=C(O)/C=C\\C(=O)O [TEGASEROD MALEATE]", "Value reported": "1%"}
{"Molecule": "CC(Cc1ccc(O)c(O)c1)C(C)Cc1ccc(O)c(O)c1 (stereo not given) [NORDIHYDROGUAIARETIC ACID]", "Value reported": "68%"}
{"Molecule": "C[C@@H](Oc1cc(-n2cnc3ccc(CN4CCN(C)CC4)cc32)sc1C(N)=O)c1ccccc1C(F)(F)F", "Value reported": "21%"}
{"Molecule": "Cc1ccc(NC(=O)Nc2cc(C(F)(F)F)ccc2F)cc1Nc1ccc2c(c1)NC(=O)/C2=C\\c1ccc[nH]1", "Value reported": "89%"}
{"Molecule": "CC[C@H](Nc1ncnc2[nH]cnc12)c1nc2cccc(F)c2c(=O)n1-c1ccccc1", "Value reported": "93%"}
{"Molecule": "Cl.Cn1c2c(c3ccc(Cl)c(Cl)c31)C(C#N)C1(CCNCC1)NC2=O (stereo not given)", "Value reported": "10%"}
{"Molecule": "CN1C(=O)[C@@H](NC(=O)c2cc3ccccc3[nH]2)N=C(c2ccccc2)c2ccccc21 [DEVAZEPIDE]", "Value reported": "49%"}
{"Molecule": "C=CC(=O)Nc1cc(-n2c(=O)ccc3cnc4ccc(-c5ccc(NS(C)(=O)=O)cc5)cc4c32)ccc1C", "Value reported": "69%"}
{"Molecule": "c1ccc(-c2oc3ncnc(NC[C@@H]4CCCO4)c3c2-c2ccccc2)cc1", "Value reported": "68%"}
{"Molecule": "N#CCNC(=O)c1ccc(-c2ccnc(Nc3ccc(N4CCOCC4)cc3)n2)cc1", "Value reported": "46%"}
{"Molecule": "Oc1cccc(-c2nc(N3CCOCC3)c3oc4ncccc4c3n2)c1", "Value reported": "40%"}
{"Molecule": "CC[C@@H]1C(=O)N(C)c2cnc(Nc3ccc(C(=O)NC4CCN(C)CC4)cc3OC)nc2N1C1CCCC1", "Value reported": "72%"}
{"Molecule": "CC[C@@]1(O)C(=O)OCc2c1cc1n(c2=O)Cc2cc3ccccc3nc2-1", "Value reported": "65%"}
{"Molecule": "CCOc1ccn(-c2ccc(F)cc2)c(=O)c1C(=O)Nc1ccc(Oc2ccnc(N)c2Cl)c(F)c1", "Value reported": "91%"}
{"Molecule": "Cc1ccc(S(=O)(=O)NC2c3ccccc3Oc3ccccc32)cc1", "Value reported": "27%"}
{"Molecule": "Cc1c(P(=S)(c2ccccc2)c2ccccc2)n2ccccc2[n+]1C/C=C/c1ccccc1.[Br-]", "Value reported": "4%"}
{"Molecule": "N#Cc1cccc(C(=O)Nc2cc(-c3ccccc3)nn2-c2ccccc2)c1", "Value reported": "55%"}
{"Molecule": "Cc1c(Nc2ccc(S(=O)(=O)N3CCN(C)CC3)cc2F)nc2ccc(Nc3cnn(C4CC4)c3)cn2c1=O", "Value reported": "91%"}
{"Molecule": "CC(C)[C@H](CO)Nc1nc(Nc2cccc(Cl)c2)c2ncn(C(C)C)c2n1", "Value reported": "48%"}
{"Molecule": "CCCCN(CC)c1nc(C)nc2c1c(C)cn2-c1c(C)cc(C)cc1C.Cl", "Value reported": "62%"}

Hello, the source for this data is ChEMBL document CHEMBL4689842, in case you need it.
